Target: EGLN1
Test: cell-based or functional assay
Where no end group is shown, it is not given here.
Property label: Activity (%)*
Write down the value, and be sure its unit follows.

Solved entries (count: 5):
- Binder: "DTDLDLEAYAPYIPADDDFQ (not fully specified; printed as DTDLDLEAYApYIPADDDFQ) [DTDLDLEAYApYIPADDDFQ]"
  Activity (%)*: "77.2%"
- Binder: "DTDLDEEALAPYIPADDDFQ [DTDLDEEALApYIPADDDFQ]"
  Activity (%)*: "49.6%"
- Binder: "DTDLDPEALAPYIPADDDFQ (not fully specified; printed as DTDLDPEALApYIPADDDFQ) [DTDLDPEALApYIPADDDFQ]"
  Activity (%)*: "40.8%"
- Binder: "DTDLDAEAIAPYIPADDDFQ [DTDLDAEAIApYIPADDDFQ]"
  Activity (%)*: "31.3%"
- Binder: "DTDLDLEMLMPYIPMDDDFQ (not fully specified; printed as DTDLDLEMLMpYIPMDDDFQ) [DTDLDLEMLMpYIPMDDDFQ]"
  Activity (%)*: "26.4%"

Field: next binder
Enquiry: What does the record list as Activity (%)* for DTDLDLEAFAPYIPADDDFQ [DTDLDLEAFApYIPADDDFQ] ?
Return: 82.2%
